Assay: gradient 5% acetonitrile 3 min, to 50% in 2 min, to 85% in 15 min, held 3 min, 100 µL/min
Conditions: column: Zorbax Extend-C18 2.1 x 50 mm; eluents: water / acetonitrile, 0.1% formic acid
Measurement type: RP-LC retention time (s)
Give the quantity in s, number only.

Which RP-LC retention time reading was recorded for the compound `Cc1sc(-c2nnc(C3CC3)o2)cc1NC(=O)c1n[nH]c2c1CCCC2` ?
916

Queued: `CCn1cc(CCNC(=O)Nc2ccc(OC)cc2OC)c2cccnc21`
649

Queued: `CCNc1nc(C)cc(N2CCN(S(=O)(=O)c3cc(C)c(C)cc3C)CC2)n1`
774

Queued: `Cc1ccc(-n2ncc3c(NCc4ccc5c(c4)OCO5)ncnc32)cc1`
939

Queued: `CCCn1ccc2sc(C)c(C(=O)N3CCN(C4CCCCC4)CC3)c2c1=O`
606

Queued: `COCCN1CCC(CNC(=O)C(=O)Nc2cccc(SC)c2)CC1`
563

Queued: `Cc1c(-c2noc(-c3ccc4c(c3)OCO4)n2)nnn1Cc1ccccc1`
1010

Queued: `O=C(CCn1cnc2cc(-c3noc(/C=C/c4cccs4)n3)ccc21)N1CCCC1`
774

Queued: O=C(NCc1ccco1)C1CCCN(c2nnc3c(Cl)cccn23)C1 (stereo not given)
627

Queued: O=C(C1CCC1)N1CCCC1c1nc(C2CCOCC2)no1 (stereo not given)
624

--- query ---
Which RP-LC retention time reading was recorded for the compound `CCn1cnc(S(=O)(=O)N2CCC(C(=O)Nc3cccc4ccccc34)CC2)c1` ?
732

Numbers sourced from the METLIN SMRT retention time set (Domingo-Almenara et al. 2019).
